All figures here come from ChEMBL document CHEMBL1139018.

Target: Disintegrin and metalloproteinase domain-containing protein 17 (Homo sapiens, UniProt P78536)
Sequence (P78536 whole entry, the tested form may be a part): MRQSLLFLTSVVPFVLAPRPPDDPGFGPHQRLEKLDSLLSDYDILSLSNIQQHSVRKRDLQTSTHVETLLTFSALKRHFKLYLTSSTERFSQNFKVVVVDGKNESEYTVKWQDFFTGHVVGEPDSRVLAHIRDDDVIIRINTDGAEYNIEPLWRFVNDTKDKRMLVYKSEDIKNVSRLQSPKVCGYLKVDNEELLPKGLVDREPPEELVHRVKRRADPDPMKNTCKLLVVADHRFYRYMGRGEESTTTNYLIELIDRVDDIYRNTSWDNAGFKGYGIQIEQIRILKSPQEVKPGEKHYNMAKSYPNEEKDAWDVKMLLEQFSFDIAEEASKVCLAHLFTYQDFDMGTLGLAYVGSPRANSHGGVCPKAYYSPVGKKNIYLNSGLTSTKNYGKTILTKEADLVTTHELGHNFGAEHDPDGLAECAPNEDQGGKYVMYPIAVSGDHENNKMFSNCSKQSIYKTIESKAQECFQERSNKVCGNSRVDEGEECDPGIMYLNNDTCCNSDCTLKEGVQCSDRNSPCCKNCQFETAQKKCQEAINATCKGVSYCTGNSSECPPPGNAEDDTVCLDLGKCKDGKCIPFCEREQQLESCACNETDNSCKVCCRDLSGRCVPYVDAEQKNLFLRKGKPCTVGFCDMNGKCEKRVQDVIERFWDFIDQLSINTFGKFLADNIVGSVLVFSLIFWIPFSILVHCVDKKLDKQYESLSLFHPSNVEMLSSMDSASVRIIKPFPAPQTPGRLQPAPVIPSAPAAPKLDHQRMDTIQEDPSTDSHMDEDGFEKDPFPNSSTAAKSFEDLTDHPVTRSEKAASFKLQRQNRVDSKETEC
Test: Inhibition of LPS-stimulated TNF production in THP cells at 1 uM
Format: functional, cell-based

Mol	inhibition
CC#CCOc1ccc(S(=O)(=O)N2C[C@H](CC(N)=O)SC(C)(C)[C@@H]2C(=O)NO)cc1	76%
CC1(C)SCCN(S(=O)(=O)c2ccc(OCC#CCCCO)cc2)[C@H]1C(=O)NO	19%
CC#CCOc1ccc(S(=O)(=O)N2C[C@H](CN)SC(C)(C)[C@@H]2C(=O)NO)cc1	78%
CC1(C)SCCN(S(=O)(=O)c2ccc(OCC#CCCCCO)cc2)[C@H]1C(=O)NO	52%
CC#CCOc1ccc(S(=O)(=O)N2C[C@H](CCN(CC)CC)SC(C)(C)[C@@H]2C(=O)NO)cc1	67%
CC1(C)SCCN(S(=O)(=O)c2ccc(OCC#CCO)cc2)[C@H]1C(=O)NO	89%
CC1(C)SCCN(S(=O)(=O)c2ccc(OCC#CCCO)cc2)[C@H]1C(=O)NO	25%
CC#CCOc1ccc(S(=O)(=O)N2C[C@H](CNS(C)(=O)=O)SC(C)(C)[C@@H]2C(=O)NO)cc1	81%

---

Consider the following compounds and their measured bioavailability readings.
Test: Bioavailability in rat at 10 mg/kg
Format: ADME, organism-based
Conditions: in vivo

Mol	bioavailability / %
CC#CCOc1ccc(S(=O)(=O)N2CCSC(C)(C)[C@@H]2C(=O)NO)cc1	5
CC1(C)SCCN(S(=O)(=O)c2ccc(OCC#CCO)cc2)[C@H]1C(=O)NO	8

---

Endpoint: IC50. System: Interstitial collagenase (Homo sapiens). Items follow.
Sequence (P03956 whole entry): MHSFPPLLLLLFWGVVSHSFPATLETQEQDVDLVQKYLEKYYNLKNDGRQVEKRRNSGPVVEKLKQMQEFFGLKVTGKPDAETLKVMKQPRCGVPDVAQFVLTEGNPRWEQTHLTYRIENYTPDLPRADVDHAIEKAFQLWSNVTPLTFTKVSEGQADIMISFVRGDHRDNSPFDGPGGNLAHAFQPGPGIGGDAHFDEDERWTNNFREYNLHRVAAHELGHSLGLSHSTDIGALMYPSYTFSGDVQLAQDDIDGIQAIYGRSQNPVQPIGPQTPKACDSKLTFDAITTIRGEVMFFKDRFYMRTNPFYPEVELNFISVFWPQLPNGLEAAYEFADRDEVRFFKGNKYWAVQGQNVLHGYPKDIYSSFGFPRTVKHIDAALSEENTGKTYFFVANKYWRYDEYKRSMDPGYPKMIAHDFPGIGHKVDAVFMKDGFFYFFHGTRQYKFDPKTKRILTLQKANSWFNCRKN

Mol	Measurement target	Unit	IC50
C#CCCOc1ccc(S(=O)(=O)N2CCSC(C)(C)[C@@H]2C(=O)NO)cc1	Interstitial collagenase (Homo sapiens)	nM	2
C/C=C/COc1ccc(S(=O)(=O)N2CCSC(C)(C)[C@@H]2C(=O)NO)cc1	Interstitial collagenase (Homo sapiens)	nM	7
CC#CCOc1ccc(S(=O)(=O)N2C[C@H](CCN(CC)CC)SC(C)(C)[C@@H]2C(=O)NO)cc1	Interstitial collagenase (Homo sapiens)	nM	33
C#CCOc1ccc(S(=O)(=O)N2CCSC(C)(C)[C@@H]2C(=O)NO)cc1	Interstitial collagenase (Homo sapiens)	nM	1
CC1(C)SCCN(S(=O)(=O)c2ccc(OCC#CCCO)cc2)[C@H]1C(=O)NO	Interstitial collagenase (Homo sapiens)	nM	35
CC1(C)SCCN(S(=O)(=O)c2ccc(OCC#CCCCO)cc2)[C@H]1C(=O)NO	Interstitial collagenase (Homo sapiens)	nM	159
CC1(C)SCCN(S(=O)(=O)c2ccc(OCC#CCN)cc2)[C@H]1C(=O)NO	Interstitial collagenase (Homo sapiens)	nM	97
C#CCCCOc1ccc(S(=O)(=O)N2CCSC(C)(C)[C@@H]2C(=O)NO)cc1	Interstitial collagenase (Homo sapiens)	nM	11
CC1(C)SCCN(S(=O)(=O)c2ccc(OCC#CCCN)cc2)[C@H]1C(=O)NO	Interstitial collagenase (Homo sapiens)	nM	1050
CCCCC#CCOc1ccc(S(=O)(=O)N2CCSC(C)(C)[C@@H]2C(=O)NO)cc1	Interstitial collagenase (Homo sapiens)	nM	29
CC(C)(C)OC(=O)NCC#CCOc1ccc(S(=O)(=O)N2CCSC(C)(C)[C@@H]2C(=O)NO)cc1	Interstitial collagenase (Homo sapiens)	nM	26
CC#CCOc1ccc(S(=O)(=O)N2C[C@H](CNS(C)(=O)=O)SC(C)(C)[C@@H]2C(=O)NO)cc1	Interstitial collagenase (Homo sapiens)	nM	19
C#CC#CCOc1ccc(S(=O)(=O)N2CCSC(C)(C)[C@@H]2C(=O)NO)cc1	Interstitial collagenase (Homo sapiens)	nM	6
CC#CCOc1ccc(S(=O)(=O)N2C[C@H](CCO)SC(C)(C)[C@@H]2C(=O)NO)cc1	Interstitial collagenase (Homo sapiens)	nM	21
CCCCOc1ccc(S(=O)(=O)N2CCSC(C)(C)[C@@H]2C(=O)NO)cc1	Interstitial collagenase (Homo sapiens)	nM	7
CC(C)(C)OC(=O)NCCC#CCOc1ccc(S(=O)(=O)N2CCSC(C)(C)[C@@H]2C(=O)NO)cc1	Interstitial collagenase (Homo sapiens)	nM	300
